Every entry's value here was drawn from patent US20250163164A1.

target system: T1, human interleukin 13 receptor subunit alpha 2 (IL-13RA2) (human, UniProt Q14627 27-380)
T1 construct: whole, on cells; also called IL-13Rα2; CD213A2
T1 sequence (looked up): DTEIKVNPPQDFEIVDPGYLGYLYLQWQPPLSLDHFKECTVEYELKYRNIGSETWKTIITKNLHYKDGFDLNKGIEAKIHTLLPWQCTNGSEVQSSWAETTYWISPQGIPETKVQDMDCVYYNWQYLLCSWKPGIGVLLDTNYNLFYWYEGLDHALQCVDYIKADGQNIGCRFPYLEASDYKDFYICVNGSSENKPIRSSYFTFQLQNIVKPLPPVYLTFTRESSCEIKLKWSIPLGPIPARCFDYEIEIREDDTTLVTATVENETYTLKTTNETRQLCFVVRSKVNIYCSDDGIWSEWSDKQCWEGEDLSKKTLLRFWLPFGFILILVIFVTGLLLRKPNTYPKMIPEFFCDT
assay overview: FACS on A375 cells
measure: pEC50
// pEC50 here means minus log10 of the molar concentration (mol/L)

Observe how each entry below is paired with its result.
{"binder": "62A8D8 (antibody, V domains shown, purified mouse antibody) VH: EVKLVESGGGLVKPGGSLKLSCAASGFTFSSYGMSWVRQTPEKRLEWVATISGGGSYTYYPDSVKGRFTISRDNAKNNLYLQMSSLRSEDTALYYCARRDLRSAMDYWGQGTSVTVSS VL: DIVMTQSQKFMSTSVGDRVSVTCKASQNVDINVAWYQQKPGQSPKALIYSASYRYSGVPDRFTGSGSGTDFTLTISNVQSEDLAEFFCQQYNNYPLTFGGGTKLEIK", "pEC50": 9.05}
{"binder": "73A11E2 (antibody, V domains shown, purified mouse antibody) VH: EVKLVESGGGLVKPGGSLKLSCAASGFTFSSYGMSWVRQTPEKRLEWVATISGGGSYTYYPDSVKGRFTISRDNARNNLYLQMNSLRSEDTALYYCARRDLRSAMDYWGQGTSVTVSS VL: DIVMTQSQKFMSTSVGDRVSVTCKASQNVDINVAWYQQKPGQSPKALIYSASYRYSGVPDRFTGSGSGTDFTLTISNVQSEDLAEFFCQQYNSYPLTFGGGTKLEIK", "pEC50": 9.15}
{"binder": "24G6D5 (antibody, V domains shown, purified mouse antibody) VH: QVQLQQSGPELVKPGTSVKMSCKASGYTFTSNYIHWVKQRPGQGLEWIGWIYPGDGSIKYNEKFKGKTTLTADKSSSTVYMLLSSLTSEDSAIYFCAVLRRLDYWGQGTTLTVSS VL: DIVLTQSPATLSVTPGDSVSLSCRASQSISNNLHWYQQKSHESPRLLIKYASQSISGIPSRFSGSGSGTDFTLSINSVETEDFGMYFCQQSNSWPLTFGAGTKLELK", "pEC50": 9.17}

Return reported pEC50. Input binder: 54A4F7 (antibody, V domains shown, purified mouse antibody) VH: EVKLVESGGGLVKPGGSLKLSCAASGFTFSSYGMSWVRQTPEKRLEWVATISGGGSYTYYPDSVKGRFTISRDNAKNNLYLQMSSLRSEDTALYYCARRDLRSAMDHWGQGTSVTVSS VL: DIVMTQSQKFMSTSVGDRVSVTCRASQNVDINVAWYQQKPGQSPKSLIYSASYRYSGVPDRFTGSGSGTDFTLTISNVQSEDLAEYFCQQYNSYPLTFGGGTKLEIR 9.08

Return value of pEC50 for input 51G2B3 (antibody, V domains shown, purified mouse antibody) VH: QVQLQQSGPELVKPGASVKISCKASGYAFSDSWMNWVKQRPGQGLEWIGRIYPGDGDTNYNGKFKGKATLTADKSSNTAYMQLSSLTSVDSAVYFCARSWNGSPWFPYWGQGTLVTVSA VL: DVLMTQTPLSLPVSLGDQASISCRSSQTIAHRNGNTYLEWYLQKPGQSPKLLLYKVSNRFSGVPDRFSGSGSGTDFTLKISRVEAEDLGVYYCFQGSHVTWTFGGGTKLEIK , no commentary. 9.06
